assay-system: T1, mouse CTGF (Abbexa) (mouse, UniProt P29268 26-348, limits assumed)
T1 construct: also called Murine CTGF; mCTGF
T1 sequence (looked up): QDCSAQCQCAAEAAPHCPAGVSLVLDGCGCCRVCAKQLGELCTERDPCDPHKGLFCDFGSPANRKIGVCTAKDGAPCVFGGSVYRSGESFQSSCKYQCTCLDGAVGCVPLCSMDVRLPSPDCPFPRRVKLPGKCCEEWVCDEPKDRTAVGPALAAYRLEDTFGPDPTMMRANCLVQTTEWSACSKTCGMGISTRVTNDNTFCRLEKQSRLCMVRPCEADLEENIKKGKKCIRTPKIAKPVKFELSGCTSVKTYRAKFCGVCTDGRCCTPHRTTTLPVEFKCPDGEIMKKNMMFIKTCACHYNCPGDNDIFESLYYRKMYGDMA
method-notes: SPR (Biacore)
Description: The binding of exemplary lipocalin muteins to human (Creative Biomart), cynomolgus, rat (R&D Systems) and mouse CTGF (Abbexa) was determined by SPR using a Biacore instrument (Cytiva, formerly GE Healthcare). Some targets were fused to a human IgG1 Fc tag, and captured via the anti-human IgG antibody kit, others were directly immobilized. For some measurements, human CTGF with a human IgG1 Fc Tag or rat or murine CTGF without a tag were directly immobilized to a CM5 Chip. […]
measurement-kind: kon (M⁻¹ s⁻¹)
# output: bare number, implied unit M⁻¹ s⁻¹

In the examples that follow, each entry is paired with its recorded kon.
binder="lipocalin mutein of SEQ ID NO: 36 (designed binder, also called hNGAL mutein) QDSTSDLIPAPPLSKVPLQQNFQDNQFQGKWYVVGWAGNVKLREDKQPAKMSATIYELKEDKSYDVTEVVFEQKKCHYIIKTFVPGSQPGEFTAGDIKSPPGYTSSLVRVVSTNYNQHAMVFFKKVGQNREFFWITLYGRTKELTSELKENFIRFSKSLGLPENHIVFPVPIDQCIDG" numeric_result=310000
binder="lipocalin mutein of SEQ ID NO: 9 (designed binder, Parent hNGAL mutein; also called hNGAL mutein) QDSTSDLIPAPPLSKVPLQQNFQDNQFHGKWYVVGLAGNKILRIDKQPAKMFATIYELKEDKSYDVTSVRFEARSCSYTIKTFVPGSQPGEFTAGNIKSAPGQTSTLVRVVSTNYNQHAMVFFKHVSQNRETFVITLYGRTKELTSELKENFIRFSKSLGLPENHIVFPVPIDQCIDGSAWSHPQFEK" numeric_result=133000
binder="lipocalin mutein of SEQ ID NO: 34 (designed binder, also called hNGAL mutein) QDSTSDLIPAPPLSKVPLQQNFQDNQFQGKWYVVGWAGNVILREDKQPFKMSATIYELKEDKSYDVTEVVFEQKKCHYIIKTFVPGSQPGEFTLGDIKSPPGETSTLVRVVSTNYNQHAMVFFKKVSQNREFFWITLYGRTKELTSELKENFIRFSKSLGLPENHIVFPVPIDQCIDG" numeric_result=240000
binder="lipocalin mutein of SEQ ID NO: 27 (designed binder, also called hNGAL mutein; not shown: C-terminal His-tag) QDSTSDLIPAPPLSKVPLQQNFQDNQFQGKWYVVGLAGNYRLREDKDPSKMGATIYELKEDKSYDVTQVQFDDKKCLYVIETFVPGSQPGEFTLGAIKSYPGLTSQLVRVVSTNYNQHAMVFLKKVYGSEEYFHITLYGRTKELTSELKENFIRFSKSLGLPENHIVFPVPIDQCIDG" numeric_result=41400
binder="lipocalin mutein of SEQ ID NO: 26 (designed binder, also called hNGAL mutein; not shown: C-terminal His-tag) QDSTSDLIPAPPLSKVPLQQNFQDNQFQGKWYVVGLAGNYRLREDKDPSKMGATIYELKEDKSYDVTQVQFDDKKCLYVIETFVPGSQPGEFTLGNIKVYPTLESQLVRVVSTNYNQHAMVFFKKVYQNREVFWITLYGRTKELTSELKENFIRFSKSLGLPENHIVFPVPIDQCIDG" numeric_result=35300

Tell me the measured kon of lipocalin mutein of SEQ ID NO: 12 (designed binder, also called hNGAL mutein; not shown: C-terminal His-tag) QDSTSDLIPAPPLSKVPLQQNFQDNQFQGKWYVVGLAGNAILREDKYPAKMFATIYELKEDKSYDVTSVRFENKSCVYTIKTFVPGSQPGEFTTGNIKSAPGQTSTLVRVVSTNYNQHAMVFFKHVSQNREFFVITLYGRTKELTSELKENFIRFSKSLGLPENHIVFPVPIDQCIDG , please.
91400

Any idea what its kon is? The binder is lipocalin mutein of SEQ ID NO: 11 (designed binder, also called hNGAL mutein; not shown: C-terminal His-tag) QDSTSDLIPAPPLSKVPLQQNFQDNQFQGKWYVVGLAGNAILREDKQPAKMFATIYELKEDKSYDVTSVRFEAKSCSYTSKTFVPGSQPGEFTAGNIKSAPGQTSTLVRVVSTNYNQHAMVFFKHVSQNRETFVITLYGRTKELTSELKENFIRFSKSLGLPENHIVFPVPIDQCIDG
80100

Value lookup for kon; key = lipocalin mutein of SEQ ID NO: 21 (designed binder, also called hNGAL mutein; not shown: C-terminal His-tag) QDSTSDLIPAPPLSKVPLQQNFQDNQFQGKWYVVGLAGNAILREDKQPAKMFATIYELKEDKSYDVTSVRFEAKSCSYTIKTFVPGSQPGEFTAGNIKSAPGQTSTLVRVVSTNYNQHAMVFFKAVRGARESFNIALYGRTKELTSELKENFIRFSKSLGLPENHIVFPVPIDQCIDG
228000
